system: UO-31 renal; experiment: NCI-60 one-dose screen, 48 h (100 = growth as untreated, 0 = no growth, -100 = all killed); settings: 10 µM unless noted
This is part of a sample that, as a whole, favours compounds with a hit. Of some 83,000 tested, about 20% had one in any assay. The source made the active and inactive calls. How the source made its calls: active means growth percent below 10; inactive means the rest.
Let's look at some molecules and their measured growth.
experimental-readout: growth

>  <query-smiles>
Cc1sc2nc3c4ccccc4c(NCCCN(C)C)nn3c(=O)c2c1C

>  <result>
-91.9% (active)

$$$$
>  <query-smiles>
O=c1[nH]cc(Nc2cc(Cl)c3nonc3c2[N+](=O)[O-])c(=O)[nH]1

>  <result>
89.3% (inactive)

$$$$
>  <query-smiles>
CC(=O)Nc1cc(C(c2ccccc2)c2ccccc2)cc(C(c2ccccc2)c2ccccc2)c1C

>  <result>
49.3% (inactive)

$$$$
>  <query-smiles>
COc1cc(/C(Cl)=C/C=C/C(=O)c2c(C)[n+]([O-])c3ccc(Cl)cc3[n+]2[O-])cc(OC)c1OC

>  <result>
45.7% (inactive)

$$$$
>  <query-smiles>
CC[n+]1c(/C=C/c2ccc(N3CCCC3)cc2)cccc1/C=C/c1ccc(N2CCCC2)cc1

>  <result>
-92.6% (active)

$$$$
>  <query-smiles>
O=C1/C(=C/c2ccc(F)cc2)Cc2ccccc21

>  <result>
92.5% (inactive)

$$$$
>  <query-smiles>
CCCc1n(Cc2ccc3ccccc3c2)cc[n+]1Cc1ccc2ccccc2c1

>  <result>
34.8% (inactive)

$$$$
>  <query-smiles>
Cc1cc(Br)c(C)cc1Br

>  <result>
91.3% (inactive)

$$$$
>  <query-smiles>
Cc1nn(-c2nc3ccccc3s2)c(C)c1Oc1ccccc1O

>  <result>
38.9% (inactive)

$$$$
>  <query-smiles>
COc1ccc(/C=C2/SC(=Nc3c(C)nn(-c4ccccc4)c3N)NC2=O)cc1

>  <result>
32.8% (inactive)

$$$$

----------
tested on: CAKI-1 renal; assay: NCI-60 one-dose screen, 48 h (100 = growth as untreated, 0 = no growth, -100 = all killed); conditions: 10 µM unless noted
The panel holds about 83,000 compounds, 20% with a hit somewhere; the sample as a whole holds those more often.
Under this convention, True denotes growth strictly below 30% and False denotes growth at or above 30%.

>  <query-smiles>
Cc1ccc(C2=Nc3c(ccc4c(C)c(C)c(=O)oc34)OC2)cc1

>  <class-label>
False

$$$$
>  <query-smiles>
O=C(O)C1CCN(S(=O)(=O)c2ccc(-c3ccccc3)cc2)CC1

>  <class-label>
False

$$$$
>  <query-smiles>
O=C1/C(=C/c2ccccc2O)C(=S)SN1Cc1ccco1

>  <class-label>
False

$$$$
>  <query-smiles>
CCOC(=O)c1sc(NC(=O)COc2ccc(/C=C3\CCc4cc(OC)ccc4C3=O)cc2)nc1C

>  <class-label>
False

$$$$
>  <query-smiles>
COc1ccc2nc(N/N=C(\C)c3ccccn3)cc(C)c2c1

>  <class-label>
True

$$$$

----------
system: OVCAR-3 ovarian; experiment: NCI-60 one-dose screen, 48 h; settings: 10 µM unless noted
About 83,000 compounds went through this panel and 20% of them were active in at least one assay; those are over-represented in the sample as a whole. The source made the active and inactive calls. How the source made its calls: active means growth percent below 10; inactive means the rest.
Outcome codes: TRUE for active, FALSE for inactive

>  <query-smiles>
CCOC(=O)CNC(=O)C1(NC(=O)CNC(=O)OCc2ccccc2)CCCC1

>  <class-label>
FALSE

$$$$
>  <query-smiles>
O=C(CNC(=O)c1cccc2ccccc12)Nc1ccccc1Cc1ccccc1

>  <class-label>
FALSE

$$$$
>  <query-smiles>
Cc1n(Cc2ccc3ccccc3c2)cc[n+]1Cc1ccc2ccccc2c1

>  <class-label>
TRUE

$$$$
>  <query-smiles>
O=C(Nc1nn2c(-c3cc(C(F)(F)F)cc(C(F)(F)F)c3)nnc2s1)C1CCCC1

>  <class-label>
FALSE

$$$$
>  <query-smiles>
c1ccc(-c2n(Cc3ccc4ccccc4c3)cc[n+]2Cc2ccc3ccccc3c2)cc1

>  <class-label>
TRUE

$$$$

----------
test system: NCI-H226 lung; test: NCI-60 one-dose screen, 48 h; settings: 10 µM unless noted
Compounds without any hit were thinned out: in the full panel of roughly 83,000, 20% have a hit. The source made the active and inactive calls. Rule for the calls: active = growth percent below 10; inactive = the rest.
Outcome codes: y (active), n (inactive)

>  <compound>
Cc1[nH]cnc1/C=C1\SC(N2CCCCC2)=NC1=O

>  <target-of-assay>
NCI-H226 lung

>  <class-label>
n

$$$$
>  <compound>
CC(=O)OC1Oc2cc(C)c(C)cc2-c2oc(=O)c(-c3ccccc3)cc21 (centres undefined)

>  <target-of-assay>
NCI-H226 lung

>  <class-label>
y

$$$$
>  <compound>
O=C1NC(=O)/C(=C\c2ccco2)S1

>  <target-of-assay>
NCI-H226 lung

>  <class-label>
n

$$$$
>  <compound>
COc1ccc(C(=O)/C=C/c2cccc(Nc3ccnc4cc(Cl)ccc34)c2)cc1

>  <target-of-assay>
NCI-H226 lung

>  <class-label>
n

$$$$
>  <compound>
C[C@@H]1CN(c2nc3c(cc2F)c(=O)c(C(=O)O)cn3C(C)(C)C)C[C@H](C)N1

>  <target-of-assay>
NCI-H226 lung

>  <class-label>
n

$$$$
>  <compound>
COc1ccc2c(c1)sc1nc(-c3ccc(Br)cc3)cn12

>  <target-of-assay>
NCI-H226 lung

>  <class-label>
n

$$$$
>  <compound>
OCCN1CCN(CCCN2c3ccccc3Sc3ccc(C(F)(F)F)cc32)CC1

>  <target-of-assay>
NCI-H226 lung

>  <class-label>
n

$$$$
>  <compound>
Cc1cnc2nc(-c3ccc(N(C)C)cc3)cn2c1

>  <target-of-assay>
NCI-H226 lung

>  <class-label>
n

$$$$
>  <compound>
CC[N+](CCCCCCCCCC[N+](CC)(c1ccccn1)c1ccccn1)(c1ccccn1)c1ccccn1

>  <target-of-assay>
NCI-H226 lung

>  <class-label>
n

$$$$
>  <compound>
Clc1ccc2nc(CI)c(CI)nc2c1

>  <target-of-assay>
NCI-H226 lung

>  <class-label>
n

$$$$
>  <compound>
COc1ccc(/C=C/C(=O)c2cccc(NS(C)(=O)=O)c2)cc1

>  <target-of-assay>
NCI-H226 lung

>  <class-label>
n

$$$$
>  <compound>
CSc1nc2nc3c(c(-c4ccc(C)cc4)c2c(=O)[nH]1)CN(C)C/C3=C\c1ccc(C)cc1

>  <target-of-assay>
NCI-H226 lung

>  <class-label>
n

$$$$
>  <compound>
CCOC(=O)N1CCC(N=C2CSc3nnc(-c4cc(C(F)(F)F)cc(C(F)(F)F)c4)n3N2)CC1

>  <target-of-assay>
NCI-H226 lung

>  <class-label>
n

$$$$
>  <compound>
CC[C@@H](C)/C=C(C)/C=C/C(O)=C1\C(=O)N[C@@H](Cc2ccc(OC(=O)[C@@](OC)(c3ccccc3)C(F)(F)F)cc2)C1=O

>  <target-of-assay>
NCI-H226 lung

>  <class-label>
n

$$$$
>  <compound>
Oc1c(Cl)cc(Oc2cc(Cl)c(O)c(CN3CCOCC3)c2)cc1CN1CCOCC1

>  <target-of-assay>
NCI-H226 lung

>  <class-label>
n

$$$$
>  <compound>
CSc1nc(Nc2ccc(S(=O)(=O)Nc3ccon3)cc2)c(C#N)c(-c2ccc(Cl)cc2)n1

>  <target-of-assay>
NCI-H226 lung

>  <class-label>
n

$$$$
>  <compound>
O=C1NC(=O)/C(=C/c2ccc(Cl)cc2Cl)N1

>  <target-of-assay>
NCI-H226 lung

>  <class-label>
n

$$$$
>  <compound>
COC(=O)[C@H](Cc1cnc[nH]1)NC(=O)[C@@H](NC(=O)Nc1cc(C(F)(F)F)cc(C(F)(F)F)c1)C(C)C

>  <target-of-assay>
NCI-H226 lung

>  <class-label>
y

$$$$
>  <compound>
CC(C)CC1NC(=O)C(CCCN)NC(=O)C(C(C)C)NC(=O)C2CCCN2C(=O)C(Cc2ccccc2)NC(=O)C(CC(C)C)NC(=O)C(CCCN)NC(=O)C(C(C)C)NC(=O)C2CCCN2C(=O)C(Cc2ccccc2)NC1=O (centres undefined)

>  <target-of-assay>
NCI-H226 lung

>  <class-label>
y

$$$$
>  <compound>
COc1cccc(C2=NN(C(C)=O)C(c3cc(OC)c(OC)c(OC)c3)C2)c1 (centres undefined)

>  <target-of-assay>
NCI-H226 lung

>  <class-label>
n

$$$$
>  <compound>
COc1ccc(N2CCN(CC(=O)N3CCN(c4nnc(-c5ccccc5)c(-c5ccccc5)n4)CC3)CC2)cc1

>  <target-of-assay>
NCI-H226 lung

>  <class-label>
n

$$$$
>  <compound>
Cc1cc(Br)c(C)cc1Br

>  <target-of-assay>
NCI-H226 lung

>  <class-label>
n

$$$$
>  <compound>
CCOC(=O)c1sc(NC(=O)COc2cccc(/C=C3\CCc4cc(OC)ccc4C3=O)c2)nc1C

>  <target-of-assay>
NCI-H226 lung

>  <class-label>
n

$$$$
>  <compound>
Cc1nn(-c2ccccc2)cc1/C=C1\SC(N2CCCCC2)=NC1=O

>  <target-of-assay>
NCI-H226 lung

>  <class-label>
n

$$$$
>  <compound>
COc1cc(OC)c2c(c1Cl)O[C@]1(C2=O)C(OCc2ccccc2)=CC(=O)C[C@H]1C

>  <target-of-assay>
NCI-H226 lung

>  <class-label>
n

$$$$
>  <compound>
Nc1ccc(Oc2c(F)c(F)c(Oc3ccc(N)cc3)c(F)c2F)cc1

>  <target-of-assay>
NCI-H226 lung

>  <class-label>
n

$$$$
>  <compound>
COc1cc(/C=N/OC(=O)Nc2ccccc2)cc(OC)c1OC

>  <target-of-assay>
NCI-H226 lung

>  <class-label>
n

$$$$
>  <compound>
Cc1cc2c(cc1C)[n+](Cc1ccc3ccccc3n1)cn2Cc1ccc2ccccc2n1

>  <target-of-assay>
NCI-H226 lung

>  <class-label>
y

$$$$
>  <compound>
CC(=O)N1N=C(c2ccc(Nc3ccnc4cc(Cl)ccc34)cc2)CC1c1ccc(Cl)cc1 (centres undefined)

>  <target-of-assay>
NCI-H226 lung

>  <class-label>
n

$$$$
>  <compound>
CC[C@@H](C)/C=C(C)/C=C/C(=O)c1c(O)c(-c2ccc(O)cc2)cn(OC2CC(=O)CCC(C)OC(=O)CC2O)c1=O (some centres undefined)

>  <target-of-assay>
NCI-H226 lung

>  <class-label>
n

$$$$
>  <compound>
O=CN1N=C(c2ccc(Nc3ccnc4cc(Cl)ccc34)cc2)CC1c1ccc(Cl)cc1 (centres undefined)

>  <target-of-assay>
NCI-H226 lung

>  <class-label>
n

$$$$
>  <compound>
O=C1/C=C/[C@@H](O)[C@@H]2C[C@@H](O)C[C@H]2/C=C/CCC[C@H](CO)O1

>  <target-of-assay>
NCI-H226 lung

>  <class-label>
y

$$$$
>  <compound>
Nc1nc(Nc2ccccc2SSc2ccccc2Nc2nc(N)nc(-c3cccc(Cl)c3)n2)nc(-c2cccc(Cl)c2)n1

>  <target-of-assay>
NCI-H226 lung

>  <class-label>
n

$$$$
>  <compound>
Cc1ccc(OCC(=O)Nc2ccc(Oc3ccccc3)cc2)c([N+](=O)[O-])n1

>  <target-of-assay>
NCI-H226 lung

>  <class-label>
n

$$$$
>  <compound>
O=C(c1ccccc1)C(CN1CCCCC1)c1ccccc1 (centres undefined)

>  <target-of-assay>
NCI-H226 lung

>  <class-label>
n

$$$$
>  <compound>
O=C(Oc1ccccc1)C(Br)C(Br)c1ccccc1 (centres undefined)

>  <target-of-assay>
NCI-H226 lung

>  <class-label>
n

$$$$
>  <compound>
COc1ccc2c(c1)CC/C(=C\c1ccc(OCC(=O)Nc3nc4ccccc4s3)cc1)C2=O

>  <target-of-assay>
NCI-H226 lung

>  <class-label>
n

$$$$
>  <compound>
O=C(O)CCC(=O)OC[C@@H](NC(=O)C(Cl)Cl)[C@H](O)c1ccc([N+](=O)[O-])cc1

>  <target-of-assay>
NCI-H226 lung

>  <class-label>
n

$$$$
>  <compound>
c1ccc(-c2n(Cc3ccc4ccccc4c3)cc[n+]2Cc2ccc3ccccc3c2)cc1

>  <target-of-assay>
NCI-H226 lung

>  <class-label>
y

$$$$
